Values were extracted from the kinase profiling compilation of Christmann-Franck et al. (2016).

biological target: YES1 (human); assay: radiometric filter-binding kinase assay; conditions: compound 100.0 µM; ATP 20 µM
reportedProperty: inhibition (%)
Your answer should be a plain number; it is taken to be in %.

Determine from records and report inhibition for `CC(C)(C)Nc1c(C2CC2)nc2[nH]cnn12`
0

Annotate the compound `O=c1c(NC(=S)NCc2ccccc2)cnc2[nH]ccn12` with its measured inhibition.
0

Specify reported inhibition for the compound shown: `Nc1nc2cnc(-c3ccccc3)cn2n1`
89

---

Exercise: for every item that follows, state its recorded inhibition.
target: HIPK2 (human); test: radiometric filter-binding kinase assay; details: compound 100.0 µM; ATP 5 µM
Numbers only; they are read as %.

Let me know recorded inhibition for `O=c1c(NC(=S)NCc2ccccc2)cnc2[nH]ccn12` , thanks.
0

Read the entry `O=c1cc(-c2ccccc2F)nc2[nH]ccn12` and write its reported inhibition.
61

Supply recorded inhibition for `Nc1cnc2c(-c3c(F)cccc3F)cccn2c1=O` here.
18

Report inhibition for `O=C(c1cccc(-c2cc3c(=O)[nH]cnc3s2)c1)N1CCOCC1`
38

Note inhibition for the compound shown: `O=C(Nc1cnc2[nH]cnn2c1=O)c1ccccc1`
0

Give recorded inhibition. `O=C(Nc1cnc2[nH]ccn2c1=O)c1ccccc1`
7

Recall and state the measured inhibition for `COc1ccc(NC(=S)Nc2cnc3[nH]cnn3c2=O)cn1` .
1

State its inhibition: `CC(=O)Nc1nc2cnc(-c3c(C)cccc3C)cn2n1`
18

Kindly indicate its recorded inhibition. Item: CC1CN(c2nc3ccccn3c(=O)c2N)CC(C)O1 (centres undefined)
0

---

molecular target: CSK (human) (UniProt P41240); experiment: radiometric filter-binding kinase assay; details: compound 100.0 µM; ATP 20 µM
Sequence (P41240 whole entry, looked up): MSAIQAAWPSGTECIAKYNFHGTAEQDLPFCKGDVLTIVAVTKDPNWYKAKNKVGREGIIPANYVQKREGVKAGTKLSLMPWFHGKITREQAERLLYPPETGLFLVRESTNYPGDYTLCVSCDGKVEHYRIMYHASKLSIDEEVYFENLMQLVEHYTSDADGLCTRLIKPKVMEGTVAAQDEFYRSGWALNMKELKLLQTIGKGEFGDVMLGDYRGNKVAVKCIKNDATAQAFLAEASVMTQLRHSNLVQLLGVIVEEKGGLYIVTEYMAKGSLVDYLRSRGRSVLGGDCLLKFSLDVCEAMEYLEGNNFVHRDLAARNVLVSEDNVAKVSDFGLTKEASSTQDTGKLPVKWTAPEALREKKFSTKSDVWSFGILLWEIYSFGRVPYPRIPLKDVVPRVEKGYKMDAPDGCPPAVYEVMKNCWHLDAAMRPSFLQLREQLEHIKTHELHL
Provide the reported inhibition of each item.
Hi! Could you send only the number? It should be in %, unit omitted.

Please look at `COc1ccc(-c2cc3c(=O)[nH]cnc3s2)cc1OC` and tell me its recorded inhibition on CSK (human) (UniProt P41240).
14

GET inhibition | system: CSK (human) (UniProt P41240) | item: `Cc1cccc(C)c1-c1cn2nc(N)nc2cn1`
24

Recall the reported inhibition of `O=C(c1cccc(-c2cc3c(=O)[nH]cnc3s2)c1)N1CCOCC1` when tested on CSK (human) (UniProt P41240).
10

// output inhibition; input `CC(C)(C)Nc1c(COCc2ccccc2)nc2[nH]cnn12` ; system CSK (human) (UniProt P41240)
0

---

Please respond with reported inhibition for every item in the list.
target: MARK1 (human); assay: radiometric filter-binding kinase assay; conditions: compound 100.0 µM; ATP 20 µM
Respond numerically; units are % and should not be typed.

Give me measured inhibition, please, for this compound: `Cc1cccc(C)c1-c1cn2nc(N)nc2cn1`
15

Look up and state reported inhibition for `CC(C)(C)Nc1c(COCc2ccccc2)nc2[nH]cnn12`
0

Retrieve inhibition measured for `O=C(Nc1cnc2[nH]ccn2c1=O)c1ccccc1` and print it.
16

---

biological target: DAPK1 (human); test: radiometric filter-binding kinase assay; conditions: compound 100.0 µM; ATP 5 µM
reportedProperty: inhibition (%)
Lab book: enter the figure in %, no units written.

Please list inhibition recorded for the compound CC1CN(c2nc3ccccn3c(=O)c2N)CC(C)O1 (stereo not given)
0

Determine its reported inhibition: `O=c1c(NC(=S)NCc2ccccc2)cnc2[nH]ccn12`
0

State its inhibition: `CC(=O)Nc1nc2cnc(-c3ccccc3)cn2n1`
12

Provide inhibition value for the following compound: `O=C(Nc1cnc2[nH]cnn2c1=O)c1ccccc1`
0

Kindly indicate its recorded inhibition. Item: `CC(C)(C)Nc1c(C2CC2)nc2[nH]cnn12`
0

Give me measured inhibition, please, for this compound: `COc1ccc(NC(=S)Nc2cnc3[nH]cnn3c2=O)cn1`
5

Indicate the recorded inhibition value for this compound: `O=C(Nc1cnc2[nH]ccn2c1=O)c1ccccc1`
16

Identify measured inhibition corresponding to `Nc1cnc2c(-c3c(F)cccc3F)cccn2c1=O`
0

Return inhibition (reported value) for this compound: `O=c1cc(-c2ccccc2F)nc2[nH]ccn12`
5

Input `Cc1cccc(C)c1-c1cn2nc(N)nc2cn1` , output reported inhibition.
0

---

target: EPHA2 (human); experiment: radiometric filter-binding kinase assay; conditions: compound 100.0 µM; ATP 50 µM
Please provide measured inhibition for the entries that follow.
Numbers only here, please. The scale is %.

Tell me measured inhibition for `CC(C)(C)Nc1c(COCc2ccccc2)nc2[nH]cnn12` please.
0

In one line, give reported inhibition of the entry `O=c1cc(-c2ccccc2F)nc2[nH]ccn12` .
9

Note down inhibition recorded for `Nc1cnc2c(-c3c(F)cccc3F)cccn2c1=O`
33

Give reported inhibition value for `COc1ccc(NC(=S)Nc2cnc3[nH]cnn3c2=O)cn1`
0

Provide only the value of recorded inhibition for `CC(C)(C)Nc1c(C2CC2)nc2[nH]cnn12`
0

Could you please provide reported inhibition for `O=C(Nc1cnc2[nH]cnn2c1=O)c1ccccc1` ? Thanks!
0

Given the compound `O=C(c1cccc(-c2cc3c(=O)[nH]cnc3s2)c1)N1CCOCC1` , write its reported inhibition.
37

Entry `O=c1c(NC(=S)NCc2ccccc2)cnc2[nH]ccn12` needs its inhibition filled in; supply it.
12

Using the record for `CC(=O)Nc1nc2cnc(-c3ccccc3)cn2n1` , state its measured inhibition.
0

---

Assign inhibition to each entry below.
biological target: BTK (human) (UniProt Q06187); experiment: radiometric filter-binding kinase assay; details: compound 100.0 µM; ATP 50 µM
Sequence (Q06187 whole entry, looked up): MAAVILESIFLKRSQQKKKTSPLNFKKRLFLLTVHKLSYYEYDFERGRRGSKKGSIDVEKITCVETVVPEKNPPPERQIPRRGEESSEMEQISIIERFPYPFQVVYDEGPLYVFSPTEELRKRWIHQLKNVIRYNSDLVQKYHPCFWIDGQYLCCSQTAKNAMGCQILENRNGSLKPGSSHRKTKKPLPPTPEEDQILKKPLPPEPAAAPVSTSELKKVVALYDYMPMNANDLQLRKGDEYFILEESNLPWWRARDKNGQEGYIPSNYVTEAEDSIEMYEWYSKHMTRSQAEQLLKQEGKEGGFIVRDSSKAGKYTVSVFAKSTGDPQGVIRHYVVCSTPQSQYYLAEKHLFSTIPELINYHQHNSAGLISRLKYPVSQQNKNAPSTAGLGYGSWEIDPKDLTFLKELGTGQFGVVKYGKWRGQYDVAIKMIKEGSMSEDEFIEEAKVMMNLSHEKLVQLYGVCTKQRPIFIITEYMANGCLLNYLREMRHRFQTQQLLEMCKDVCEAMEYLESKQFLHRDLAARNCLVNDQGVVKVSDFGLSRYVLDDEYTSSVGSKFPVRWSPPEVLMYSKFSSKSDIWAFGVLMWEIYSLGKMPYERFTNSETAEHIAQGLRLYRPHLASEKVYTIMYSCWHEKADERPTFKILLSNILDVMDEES
Record the value in %, omitting the unit from your answer.

Please give measured inhibition of the following entry: `CC(=O)Nc1nc2cnc(-c3c(C)cccc3C)cn2n1`
0

Name the recorded inhibition of the item `O=C(Nc1cnc2[nH]cnn2c1=O)c1ccccc1` in your answer.
17

Supply inhibition value. Item: `Nc1nc2cnc(-c3ccccc3)cn2n1`
67

// fetch inhibition given entry `Cc1cccc(C)c1-c1cn2nc(N)nc2cn1`
44

Complete the entry with inhibition for `CC(=O)Nc1nc2cnc(-c3ccccc3)cn2n1`
28

Consider the compound `O=C(Nc1cnc2[nH]ccn2c1=O)c1ccccc1` . State its measured inhibition.
14

---

biological target: HIPK1 (human) (UniProt Q86Z02); assay: radiometric filter-binding kinase assay; details: compound 100.0 µM; ATP 20 µM
Sequence (Q86Z02 whole entry, looked up): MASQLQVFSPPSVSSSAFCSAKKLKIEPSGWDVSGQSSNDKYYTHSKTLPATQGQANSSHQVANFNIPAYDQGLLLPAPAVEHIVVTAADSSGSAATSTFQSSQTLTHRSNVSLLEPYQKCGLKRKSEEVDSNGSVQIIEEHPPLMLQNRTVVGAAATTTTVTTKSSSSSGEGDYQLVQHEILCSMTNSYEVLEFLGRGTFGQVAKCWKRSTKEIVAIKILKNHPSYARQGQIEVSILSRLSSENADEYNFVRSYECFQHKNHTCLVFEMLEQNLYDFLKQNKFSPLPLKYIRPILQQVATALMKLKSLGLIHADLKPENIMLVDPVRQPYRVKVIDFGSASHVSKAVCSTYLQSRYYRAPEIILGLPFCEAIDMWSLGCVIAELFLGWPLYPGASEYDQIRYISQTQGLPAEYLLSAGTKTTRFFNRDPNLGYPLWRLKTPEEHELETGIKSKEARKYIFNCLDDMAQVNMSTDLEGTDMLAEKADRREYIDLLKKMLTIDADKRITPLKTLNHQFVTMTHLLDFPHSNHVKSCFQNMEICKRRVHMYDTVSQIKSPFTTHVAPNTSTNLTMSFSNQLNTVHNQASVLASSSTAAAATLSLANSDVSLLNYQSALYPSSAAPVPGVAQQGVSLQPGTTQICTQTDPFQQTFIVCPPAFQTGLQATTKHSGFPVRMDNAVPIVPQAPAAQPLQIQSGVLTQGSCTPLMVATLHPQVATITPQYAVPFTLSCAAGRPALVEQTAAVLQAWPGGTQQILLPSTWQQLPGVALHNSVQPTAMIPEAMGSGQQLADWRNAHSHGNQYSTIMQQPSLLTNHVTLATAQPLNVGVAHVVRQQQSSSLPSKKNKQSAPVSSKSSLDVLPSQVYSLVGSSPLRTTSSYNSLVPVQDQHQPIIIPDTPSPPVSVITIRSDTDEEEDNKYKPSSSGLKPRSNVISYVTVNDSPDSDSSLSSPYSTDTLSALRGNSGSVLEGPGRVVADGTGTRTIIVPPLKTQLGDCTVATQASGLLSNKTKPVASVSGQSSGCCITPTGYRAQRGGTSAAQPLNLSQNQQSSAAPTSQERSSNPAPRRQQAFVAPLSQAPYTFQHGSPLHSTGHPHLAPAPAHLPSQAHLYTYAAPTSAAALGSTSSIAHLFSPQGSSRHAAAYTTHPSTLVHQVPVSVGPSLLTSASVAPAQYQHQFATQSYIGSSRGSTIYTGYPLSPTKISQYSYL
reportedProperty: inhibition

Find the measured inhibition of `CC(C)(C)Nc1c(COCc2ccccc2)nc2[nH]cnn12` and report it.
0%

Answer with the recorded inhibition of `Cc1cccc(C)c1-c1cn2nc(N)nc2cn1` only.
16%

Please indicate inhibition recorded for `CC(C)(C)Nc1c(C2CC2)nc2[nH]cnn12`
6%

Item `O=C(Nc1cnc2[nH]cnn2c1=O)c1ccccc1` : provide inhibition
0%

Using known records, supply inhibition for `Nc1nc2cnc(-c3ccccc3)cn2n1`
28%

Name the recorded inhibition of the item `CC(=O)Nc1nc2cnc(-c3ccccc3)cn2n1` in your answer.
16%

Please indicate inhibition recorded for `CC(=O)Nc1nc2cnc(-c3c(C)cccc3C)cn2n1`
0%

Please indicate inhibition recorded for `COc1ccc(-c2cc3c(=O)[nH]cnc3s2)cc1OC`
13%

Given `O=c1cc(-c2ccccc2F)nc2[nH]ccn12` , respond with its inhibition.
30%

Input `O=c1c(NC(=S)NCc2ccccc2)cnc2[nH]ccn12` , output reported inhibition.
0%

Name the recorded inhibition of the compound listed here: `O=C(c1cccc(-c2cc3c(=O)[nH]cnc3s2)c1)N1CCOCC1`
10%

---

Kindly state inhibition for each of the entries shown.
target: TEK (human); assay: radiometric filter-binding kinase assay; details: compound 100.0 µM; ATP 20 µM
A number alone suffices; assume %.

Please respond with reported inhibition (system TEK (human)) for `CC(C)(C)Nc1c(COCc2ccccc2)nc2[nH]cnn12` .
0

Report inhibition on TEK (human) for this entry: `CC(=O)Nc1nc2cnc(-c3c(C)cccc3C)cn2n1`
0

Given `O=c1cc(-c2ccccc2F)nc2[nH]ccn12` , report its inhibition on TEK (human).
0

Write down measured inhibition (TEK (human)) for this compound. `Cc1cccc(C)c1-c1cn2nc(N)nc2cn1`
6

Give TEK (human) inhibition for the following compound: `O=C(c1cccc(-c2cc3c(=O)[nH]cnc3s2)c1)N1CCOCC1`
0

Recall the reported inhibition of `O=C(Nc1cnc2[nH]cnn2c1=O)c1ccccc1` when tested on TEK (human).
0

---

Give inhibition for every item shown.
target: PIM1 (human); assay: radiometric filter-binding kinase assay; details: compound 100.0 µM; ATP 20 µM
Return type: number; implicit unit %.

Quote inhibition reported for `COc1ccc(NC(=S)Nc2cnc3[nH]cnn3c2=O)cn1` please.
0

For the molecule `CC(=O)Nc1nc2cnc(-c3c(C)cccc3C)cn2n1` , report inhibition.
9

Specify reported inhibition for the molecule shown: `Cc1cccc(C)c1-c1cn2nc(N)nc2cn1`
18

Hello, please tell me recorded inhibition for this one: `O=C(Nc1cnc2[nH]ccn2c1=O)c1ccccc1`
0

---

system: LCK (mouse); experiment: radiometric filter-binding kinase assay; settings: compound 100.0 µM; ATP 50 µM; accession and sequence are those of the human protein
Exercise: for every item that follows, state its recorded inhibition.
# number only, unit % dropped from output

Return inhibition for the following compound: CC1CN(c2nc3ccccn3c(=O)c2N)CC(C)O1 (stereo not drawn)
2

Entry `Nc1nc2cnc(-c3ccccc3)cn2n1` needs its inhibition filled in; supply it.
75

State, in one line, measured inhibition of `CC(C)(C)Nc1c(COCc2ccccc2)nc2[nH]cnn12`
5
